Collected set of pIC50 measured with Vascular endothelial growth factor receptor 2 (Mus musculus, UniProt P35918) across studies.
Sequence (P35918 whole entry): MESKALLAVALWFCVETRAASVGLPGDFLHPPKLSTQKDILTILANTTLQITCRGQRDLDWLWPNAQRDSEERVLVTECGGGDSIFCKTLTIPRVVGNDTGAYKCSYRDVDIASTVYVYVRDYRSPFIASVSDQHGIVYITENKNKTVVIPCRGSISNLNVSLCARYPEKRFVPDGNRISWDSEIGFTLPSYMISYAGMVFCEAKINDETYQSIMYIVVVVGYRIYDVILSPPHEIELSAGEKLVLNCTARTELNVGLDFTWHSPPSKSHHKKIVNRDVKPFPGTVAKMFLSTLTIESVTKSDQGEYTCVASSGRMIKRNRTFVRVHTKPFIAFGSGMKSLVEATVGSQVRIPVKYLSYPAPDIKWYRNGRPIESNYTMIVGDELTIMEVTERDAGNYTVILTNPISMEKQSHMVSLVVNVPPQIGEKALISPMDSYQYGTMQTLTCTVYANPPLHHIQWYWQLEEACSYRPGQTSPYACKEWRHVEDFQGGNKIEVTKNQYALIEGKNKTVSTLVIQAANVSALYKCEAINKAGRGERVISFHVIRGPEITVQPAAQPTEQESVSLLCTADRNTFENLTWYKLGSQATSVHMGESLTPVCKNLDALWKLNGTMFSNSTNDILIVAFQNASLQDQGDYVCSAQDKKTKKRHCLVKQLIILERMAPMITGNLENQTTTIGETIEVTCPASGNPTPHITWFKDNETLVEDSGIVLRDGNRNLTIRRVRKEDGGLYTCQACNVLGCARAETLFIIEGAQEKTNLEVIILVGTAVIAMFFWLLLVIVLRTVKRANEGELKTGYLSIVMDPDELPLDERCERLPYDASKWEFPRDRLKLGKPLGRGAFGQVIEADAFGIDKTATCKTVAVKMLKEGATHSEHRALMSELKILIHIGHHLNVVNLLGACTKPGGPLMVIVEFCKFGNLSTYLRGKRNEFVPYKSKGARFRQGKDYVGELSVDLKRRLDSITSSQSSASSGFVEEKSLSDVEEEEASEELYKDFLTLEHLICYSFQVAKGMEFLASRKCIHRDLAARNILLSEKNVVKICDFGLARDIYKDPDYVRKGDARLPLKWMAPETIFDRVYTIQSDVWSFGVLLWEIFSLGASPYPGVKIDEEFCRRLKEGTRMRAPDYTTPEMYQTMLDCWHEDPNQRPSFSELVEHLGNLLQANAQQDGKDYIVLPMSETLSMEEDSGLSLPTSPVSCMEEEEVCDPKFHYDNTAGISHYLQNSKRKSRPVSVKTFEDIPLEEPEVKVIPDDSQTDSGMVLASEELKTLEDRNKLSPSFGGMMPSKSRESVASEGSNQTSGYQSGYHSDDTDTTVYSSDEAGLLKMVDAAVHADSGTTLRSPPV
pIC50: −log10 of the molar value.
I would appreciate it if you labelled entries class 1 when pIC50 is 5 or higher, otherwise class 0.

{"STRUCTURE_STRING": "COc1c(Br)cc(/C=C2\\C(=O)Nc3ccccc32)cc1C(C)(C)C", "ASSIGNED_CATEGORY": "class 0"}
{"STRUCTURE_STRING": "O=C1Nc2ccccc2/C1=C\\c1ccc(Br)cc1", "ASSIGNED_CATEGORY": "class 0"}
{"STRUCTURE_STRING": "O=C1Nc2ccccc2/C1=C/c1ccc(O)cc1", "ASSIGNED_CATEGORY": "class 1"}
{"STRUCTURE_STRING": "O=C1Nc2cc(F)ccc2/C1=C/c1ccc[nH]1", "ASSIGNED_CATEGORY": "class 1"}
{"STRUCTURE_STRING": "O=C1Nc2ccccc2/C1=C\\c1ccc(N2CCOCC2)cc1", "ASSIGNED_CATEGORY": "class 1"}
{"STRUCTURE_STRING": "Oc1nc2ncccc2c(O)c1-c1nc2ccccc2[nH]1", "ASSIGNED_CATEGORY": "class 1"}
{"STRUCTURE_STRING": "O=C1Nc2ccccc2/C1=C/c1ccc(C(=O)O)cc1", "ASSIGNED_CATEGORY": "class 0"}
{"STRUCTURE_STRING": "CN1CCN(c2ccc3[nH]c(-c4c(N)c5ccccc5[nH]c4=O)nc3c2)CC1", "ASSIGNED_CATEGORY": "class 1"}
{"STRUCTURE_STRING": "Oc1nc2cnccc2c(O)c1-c1nc2ccccc2[nH]1", "ASSIGNED_CATEGORY": "class 1"}
{"STRUCTURE_STRING": "CN(C)c1ccc(/C=C2\\C(=O)N(C)c3ccccc32)cc1", "ASSIGNED_CATEGORY": "class 0"}
{"STRUCTURE_STRING": "CC(C)(C)NC(=O)Nc1cccc2[nH]nc(-c3nc4cc(N5CCC(N6CCCCC6)CC5)ccc4[nH]3)c12", "ASSIGNED_CATEGORY": "class 1"}
{"STRUCTURE_STRING": "O=C1Nc2ccccc2/C1=C\\c1ccc(N2CCCCC2)cc1", "ASSIGNED_CATEGORY": "class 1"}
{"STRUCTURE_STRING": "COC(=O)CCc1c[nH]c(/C=C2\\C(=O)Nc3ccccc32)c1C", "ASSIGNED_CATEGORY": "class 1"}
{"STRUCTURE_STRING": "CSc1ccc(/C=C2/C(=O)Nc3ccccc32)s1", "ASSIGNED_CATEGORY": "class 1"}
{"STRUCTURE_STRING": "Cc1c[nH]c(/C=C2/C(=O)Nc3ccccc32)c1CCC(O)O", "ASSIGNED_CATEGORY": "class 1"}
{"STRUCTURE_STRING": "Cc1cc(C)c(/C=C2/C(=O)Nc3cc(F)ccc32)[nH]1", "ASSIGNED_CATEGORY": "class 1"}
{"STRUCTURE_STRING": "CN(C)c1ccc(/C=C2/C(=O)Nc3ccccc32)cc1", "ASSIGNED_CATEGORY": "class 1"}
{"STRUCTURE_STRING": "CCc1ccc(/C=C2/C(=O)Nc3ccccc32)s1", "ASSIGNED_CATEGORY": "class 1"}
{"STRUCTURE_STRING": "Cc1cc(C)c(/C=C2\\C(=O)Nc3cc(F)ccc32)[nH]1", "ASSIGNED_CATEGORY": "class 1"}
{"STRUCTURE_STRING": "CC(C)c1cc(/C=C2\\C(=O)Nc3ccc(Cl)cc32)cc(C(C)C)c1O", "ASSIGNED_CATEGORY": "class 1"}
{"STRUCTURE_STRING": "CCc1ccc(/C=C2/C(=O)Nc3ccccc32)o1", "ASSIGNED_CATEGORY": "class 0"}
{"STRUCTURE_STRING": "Cc1cccc2c1/C(=C/c1ccc(N(C)C)cc1)C(=O)N2", "ASSIGNED_CATEGORY": "class 1"}
{"STRUCTURE_STRING": "Cc1c[nH]c(/C=C2\\C(=O)Nc3ccccc32)c1C", "ASSIGNED_CATEGORY": "class 1"}
